# experimental protocol: NCI Yeast Anticancer Drug Screen. Data for the cln2 rad14 strain (AID 165);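 further: 0% = growth equal to vehicle treated cultures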
# condition: S. cerevisiae cln2 rad14 strain, at 50.0 µM, hits give high values
The panel holds about 79,000 compounds, 15% with a hit somewhere; the sample as a whole holds those more often.
readout type: growth inhibition (%)
Reply numerically in %, unit not repeated.

The following compounds have reported results that may help.
Cn1c(=O)c2ncn(CC3CCCCC3)c2n(C)c1=O = -5.9
CCCCCCOC(=O)NC1c2ccccc2Oc2ccccc21 = -7.2
Cc1ccc(OC/C=N\N=C(N)N)cc1C = -6
CC(=O)O[C@]12CCCCCC1C1(O)C(O)CCCC[C@H]12 (some centres undefined) = 4.45
OC(c1ccccc1)C1(O)CCCCC1 (centres undefined) = -52.5

# growth inhibition lookup, item O=C(CC1C(=O)Nc2ccccc2S1(=O)=O)Nc1cc(Cl)ccc1Cl (centres undefined)
15.1

Next compound: `CCN(CCC#N)c1cccc(C)c1`
9.8

// next record `Cc1cc(Br)ccc1N=Cc1ccc(C=Nc2ccc(Br)cc2C)cc1`
-2.5

// next record CC(C)c1cc(C(C)C)c(S(=O)(=O)N/N=C2\CC3CCC2(C)C3(C)C)c(C(C)C)c1 (centres undefined)
-4.35

// same read-out, input: `O=S(=O)(O)Cc1ccccc1`
-24.4

Now give it for `Cc1ccc2oc(=O)cc(CC(=O)O)c2c1` too.
12.1

Again, but for `O=CC(=O)c1ccccc1O`
18.3

Check CCOC(=O)CNC(=O)C(Cc1ccccc1)NC(=O)c1ccccc1[N+](=O)[O-] (centres undefined) too.
15.8

Same thing, different compound: `CC(=O)CC(=O)NCCCN1CCCCCC1`
-1.05

Reference source: PubChem BioAssay (NCI)
